// data source = ChEMBL document CHEMBL1127066

- Test system: Streptococcus pneumoniae
- Experiment summary: In vitro antimicrobial activity against Streptococcus pneumoniae PARK strain
- Format: functional
Record form. Attribute: MIC. Fill in for each entry.
Return type: number; implicit unit µg/mL.

Please report the recorded MIC for Cn1c(SC2=C(C(=O)[O-])N3C(=O)[C@@H](NC(=O)/C(=N/OCCF)c4csc(N)n4)[C@H]3CC2)n[nH]c(=O)c1=O.[Na+] . 0.015

Please report the recorded MIC for Nc1nc(/C(=N\OCCF)C(=O)N[C@@H]2C(=O)N3C(C(=O)[O-])=C(Sc4ncccn4)CC[C@H]23)cs1.[Na+] . 0.03

Please report the recorded MIC for C[n+]1ccc2sc(SC3=C(C(=O)[O-])N4C(=O)[C@@H]([N-]C(=O)/C(=N/OCCF)c5csc(N)n5)[C@H]4CC3)nc2c1.[Na+] . 0.15

---

- System: Haemophilus influenzae
- Experiment summary: In vitro antimicrobial activity against Haemophilus influenzae C.L. strain
- Type: functional
Metric name: MIC
Please make sure the unit comes right after the number.

Please report the recorded MIC for Nc1nc(/C(=N\OCCF)C(=O)N[C@@H]2C(=O)N3C(C(=O)[O-])=C(Sc4nc(-c5ccccn5)cs4)CC[C@H]23)cs1.[Na+] . 0.03 µg/mL

Please report the recorded MIC for Nc1nc(/C(=N\OCCF)C(=O)N[C@@H]2C(=O)N3C(C(=O)[O-])=C(Sc4nc(C(=O)OCc5ccccc5)cs4)CC[C@H]23)cs1.[Na+] . 0.03 µg/mL

Please report the recorded MIC for Cc1nc(SC2=C(C(=O)[O-])N3C(=O)[C@@H](NC(=O)/C(=N/OCCF)c4csc(N)n4)[C@H]3CC2)sc1C.[Na+] . 0.015 µg/mL

---

- Tested on: Streptococcus pneumoniae
- Experiment summary: In vitro antimicrobial activity against Streptococcus pneumoniae PARK strain
- Format: functional
Metric name: MIC

Please report the recorded MIC for Nc1nc(/C(=N\OCCF)C(=O)N[C@@H]2C(=O)N3C(C(=O)[O-])=C(Sc4nc(C(=O)OCc5ccccc5)cs4)CC[C@H]23)cs1.[Na+] . < 8 ng/mL

Please report the recorded MIC for CO/N=C(\C(=O)N[C@@H]1C(=O)N2C(C(=O)O)=C(COC(C)=O)CS[C@H]12)c1csc(N)n1 [CEFOTAXIME] . 15 ng/mL

Please report the recorded MIC for CCOc1ccc2nc(SC3=C(C(=O)[O-])N4C(=O)[C@@H](NC(=O)/C(=N/OCCF)c5csc(N)n5)[C@H]4CC3)sc2c1.[Na+] . < 8 ng/mL

Please report the recorded MIC for Cc1nc(SC2=C(C(=O)[O-])N3C(=O)[C@@H](NC(=O)/C(=N/OCCF)c4csc(N)n4)[C@H]3CC2)sc1C.[Na+] . < 8 ng/mL

Please report the recorded MIC for Nc1nc(/C(=N\OCCF)C(=O)N[C@@H]2C(=O)N3C(C(=O)[O-])=C(Sc4nc5ccc([N+](=O)[O-])cc5s4)CC[C@H]23)cs1.[Na+] . < 8 ng/mL

Please report the recorded MIC for Nc1nc(/C(=N\OCCF)C(=O)N[C@@H]2C(=O)N3C(C(=O)[O-])=C(Sc4nc5cc(Cl)ccc5s4)CC[C@H]23)cs1.[Na+] . < 8 ng/mL

Please report the recorded MIC for COC(=O)c1sc(SC2=C(C(=O)[O-])N3C(=O)[C@@H](NC(=O)/C(=N/OCCF)c4csc(N)n4)[C@H]3CC2)nc1C.[Na+] . < 8 ng/mL

Please report the recorded MIC for Nc1nc(/C(=N\OCCF)C(=O)N[C@@H]2C(=O)N3C(C(=O)[O-])=C(Sc4nc(-c5ccncc5)cs4)CC[C@H]23)cs1.[Na+] . < 8 ng/mL

Please report the recorded MIC for Nc1nc(/C(=N\OCCF)C(=O)N[C@@H]2C(=O)N3C(C(=O)[O-])=C(Sc4nnc(O)c(O)n4)CC[C@H]23)cs1.[Na+] . 60 ng/mL

Please report the recorded MIC for CCCCOC(=O)c1csc(SC2=C(C(=O)[O-])N3C(=O)[C@@H](NC(=O)/C(=N/OCCF)c4csc(N)n4)[C@H]3CC2)n1.[Na+] . < 8 ng/mL

Please report the recorded MIC for Nc1nc(/C(=N\OCCF)C(=O)N[C@@H]2C(=O)N3C(C(=O)[O-])=C(Sc4nc5ccccc5[nH]4)CC[C@H]23)cs1.[Na+] . < 8 ng/mL

Please report the recorded MIC for Nc1nc(/C(=N\OCCF)C(=O)N[C@@H]2C(=O)N3C(C(=O)[O-])=C(Sc4nc(-c5ccccc5)cs4)CC[C@H]23)cs1.[Na+] . < 8 ng/mL

Please report the recorded MIC for Nc1nc(/C(=N\OCCF)C(=O)N[C@@H]2C(=O)N3C(C(=O)[O-])=C(Sc4nc5ccncc5s4)CC[C@H]23)cs1.[Na+] . < 8 ng/mL

Please report the recorded MIC for Cn1nnnc1SC1=C(C(=O)[O-])N2C(=O)[C@@H](NC(=O)/C(=N/OCCF)c3csc(N)n3)[C@H]2CC1.[Na+] . 15 ng/mL

Please report the recorded MIC for Nc1nc(/C(=N\OCCF)C(=O)N[C@@H]2C(=O)N3C(C(=O)[O-])=C(Sc4nncs4)CC[C@H]23)cs1.[Na+] . < 8 ng/mL

Please report the recorded MIC for COc1cccc(OC)c1C(=O)N[C@@H]1C(=O)N2[C@@H]1SC(C)(C)[C@@H]2C(=O)O [METHICILLIN] . 500 ng/mL

Please report the recorded MIC for Nc1nc(/C(=N\OCCF)C(=O)N[C@@H]2C(=O)N3C(C(=O)[O-])=C(Sc4ccncc4)CC[C@H]23)cs1.[Na+] . < 8 ng/mL

Please report the recorded MIC for Cn1ccnc1SC1=C(C(=O)[O-])N2C(=O)[C@@H](NC(=O)/C(=N/OCCF)c3csc(N)n3)[C@H]2CC1.[Na+] . < 8 ng/mL

Please report the recorded MIC for CCOc1nn(C)c(SC2=C(C(=O)[O-])N3C(=O)[C@@H](NC(=O)/C(=N/OCCF)c4csc(N)n4)[C@H]3CC2)nc1=O.[Na+] . 30 ng/mL

Please report the recorded MIC for Nc1nc(/C(=N\OCCF)C(=O)N[C@@H]2C(=O)N3C(C(=O)[O-])=C(Sc4cccc[n+]4[O-])CC[C@H]23)cs1.[Na+] . 150 ng/mL

Please report the recorded MIC for Nc1ccc2nc(SC3=C(C(=O)[O-])N4C(=O)[C@@H](NC(=O)/C(=N/OCCF)c5csc(N)n5)[C@H]4CC3)sc2c1.[Na+] . < 8 ng/mL

Please report the recorded MIC for Nc1nc(/C(=N\OCCF)C(=O)N[C@@H]2C(=O)N3C(C(=O)[O-])=C(Sc4nccnc4N)CC[C@H]23)cs1.[Na+] . < 8 ng/mL

Please report the recorded MIC for Nc1nc(/C(=N\OCCF)C(=O)N[C@@H]2C(=O)N3C(C(=O)[O-])=C(Sc4nc5c(N)ncnc5s4)CC[C@H]23)cs1.[Na+] . < 8 ng/mL

Please report the recorded MIC for Nc1nc(/C(=N\OCCF)C(=O)N[C@@H]2C(=O)N3C(C(=O)[O-])=C(Sc4nc5cnccc5s4)CC[C@H]23)cs1.[Na+] . < 8 ng/mL

Please report the recorded MIC for Cc1csc(SC2=C(C(=O)[O-])N3C(=O)[C@@H](NC(=O)/C(=N/OCCF)c4csc(N)n4)[C@H]3CC2)n1.[Na+] . < 8 ng/mL

Please report the recorded MIC for Cc1cnc(SC2=C(C(=O)[O-])N3C(=O)[C@@H](NC(=O)/C(=N/OCCF)c4csc(N)n4)[C@H]3CC2)s1.[Na+] . < 8 ng/mL

Please report the recorded MIC for Nc1nc(/C(=N\OCCF)C(=O)N[C@@H]2C(=O)N3C(C(=O)[O-])=C(Sc4ccccc4)CC[C@H]23)cs1.[Na+] . 15 ng/mL
